Where do these numbers come from? They come from patent US20120045523A1.

- System: NCI-H292 cells
- measurement-protocol: Number of living cells (MTS, CellTiter 96 AQueous One) after chemotherapy and/or poly(I:C)
- condition-notes: NCI-H292; agent in combination with poly(I:C); average CI
property: CI (combination index)
Output: the number by itself.

Solved cases (2 shown):
{"molecule": "COc1cc([C@@H]2c3cc4c(cc3[C@@H](O[C@@H]3O[C@@H]5CO[C@@H](C)O[C@H]5[C@H](O)[C@H]3O)[C@H]3COC(=O)[C@H]23)OCO4)cc(OC)c1O [Etoposide, etoposide]", "measured-on": "NCI-H292 cells", "property": "CI (combination index)", "reported-value": 0.68}
{"molecule": "CC(=O)O[C@H]1C(=O)[C@@]2(C)[C@H]([C@H](OC(=O)c3ccccc3)[C@]3(O)C[C@H](OC(=O)[C@H](O)[C@@H](NC(=O)c4ccccc4)c4ccccc4)C(C)=C1C3(C)C)[C@]1(OC(C)=O)CO[C@@H]1C[C@@H]2O", "measured-on": "NCI-H292 cells", "property": "CI (combination index)", "reported-value": 0.71}

Please examine the following record next.
Q: Which measured CI (combination index) value corresponds to CC(=O)O[C@@]12CO[C@@H]1C[C@H](O)[C@@]1(C)C(=O)[C@H](O)C3=C(C)[C@@H](OC(=O)[C@H](O)[C@@H](NC(=O)OC(C)(C)C)c4ccccc4)C[C@@](O)([C@@H](OC(=O)c4ccccc4)[C@H]21)C3(C)C ?
Ans: 0.68
